biological target: cathepsin L (CatL) (Homo sapiens); assay: Cathepsin L enzyme inhibition; format: biochemical; conditions: SD lower than 15%; read-out: pKi CatL (converted)
Sequence (P07711 114-333): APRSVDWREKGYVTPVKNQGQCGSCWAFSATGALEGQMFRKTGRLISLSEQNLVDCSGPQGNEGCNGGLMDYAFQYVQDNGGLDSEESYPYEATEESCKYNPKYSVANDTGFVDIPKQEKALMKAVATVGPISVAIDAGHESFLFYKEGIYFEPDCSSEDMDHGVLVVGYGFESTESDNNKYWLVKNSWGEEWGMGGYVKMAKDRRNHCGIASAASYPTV
Below, each of the molecules is paired with its reported Ki value.

>  <Molecule>
Cn1nc(C(C)(C)C)cc1C(=O)N[C@@H](Cc1ccccc1)C(=O)N[C@H](C#N)Cc1cccc(Cl)c1

>  <Ki (nM)>
5.01

$$$$
>  <Molecule>
CC(C)C[C@H](NC(=O)c1cc(C(C)(C)C)nn1C)C(=O)N[C@H](C#N)[C@@H](C)O

>  <Ki (nM)>
100

$$$$
>  <Molecule>
CC(C)C[C@@H](C#N)NC(=O)[C@H](Cc1ccccc1)NC(=O)c1cc(C(C)(C)C)nn1C

>  <Ki (nM)>
5.01

$$$$
>  <Molecule>
Cn1nc(C(C)(C)C)cc1C(=O)N[C@@H](Cc1ccncc1)C(=O)NC1(C#N)CC1

>  <Ki (nM)>
25.1

$$$$
>  <Molecule>
Cn1nc(C(C)(C)C)cc1C(=O)N[C@@H](Cc1ccccc1)C(=O)N[C@H](C#N)Cc1ccccc1

>  <Ki (nM)>
3.16

$$$$
>  <Molecule>
CC(C)C[C@H](NC(=O)c1cc(C(C)(C)C)nn1C)C(=O)N[C@H](C#N)[C@@H](C)OCc1ccccc1

>  <Ki (nM)>
63.1

$$$$
>  <Molecule>
Cn1nc(C(C)(C)C)cc1C(=O)N[C@@H](Cc1cccc(Cl)c1)C(=O)NC1(C#N)CC1

>  <Ki (nM)>
2.51

$$$$
>  <Molecule>
C[C@H](O)[C@H](C#N)NC(=O)[C@H](Cc1ccccc1)NC(=O)c1cc(C(C)(C)C)nn1C

>  <Ki (nM)>
2510

$$$$
>  <Molecule>
N#CC1(NC(=O)[C@H](Cc2cccc(Cl)c2)NC(=O)c2ccccc2)CC1

>  <Ki (nM)>
50.1

$$$$
>  <Molecule>
Cn1nc(C(C)(C)C)cc1C(=O)N[C@@H](Cc1ccccc1)C(=O)N[C@H](C#N)Cc1ccncc1

>  <Ki (nM)>
5.01

$$$$
>  <Molecule>
Cn1nc(C(C)(C)C)cc1C(=O)N[C@@H](Cc1ccccc1)C(=O)N[C@@H](C#N)Cc1ccccc1

>  <Ki (nM)>
126

$$$$
>  <Molecule>
Cn1nc(C(C)(C)C)cc1C(=O)N[C@@H](Cc1ccccc1)C(=O)NC1(C#N)CC1

>  <Ki (nM)>
6.31

$$$$
>  <Molecule>
C[C@@H](O)[C@H](NC(=O)c1cc(C(C)(C)C)nn1C)C(=O)NC1(C#N)CC1

>  <Ki (nM)>
6310

$$$$
>  <Molecule>
N#CC1(NC(=O)[C@H](Cc2ccccc2)NC(=O)c2ccnc3cc(Cl)ccc23)CC1

>  <Ki (nM)>
63.1

$$$$
>  <Molecule>
C[C@@H](O)[C@@H](C#N)NC(=O)[C@H](Cc1ccccc1)NC(=O)c1cc(C(C)(C)C)nn1C

>  <Ki (nM)>
5010

$$$$
>  <Molecule>
C[C@@H](OCc1ccccc1)[C@@H](C#N)NC(=O)[C@H](Cc1ccccc1)NC(=O)c1cc(C(C)(C)C)nn1C

>  <Ki (nM)>
100

$$$$
>  <Molecule>
CC(C)C[C@H](NC(=O)c1ccc(N)nc1)C(=O)NC1(C#N)CC1

>  <Ki (nM)>
316

$$$$
>  <Molecule>
N#CC1(NC(=O)[C@H](Cc2c[nH]c3ccccc23)NC(=O)c2ccnc3cc(Cl)ccc23)CC1

>  <Ki (nM)>
2000

$$$$
>  <Molecule>
CC(C)C[C@H](NC(=O)c1ccnc2cc(Cl)ccc12)C(=O)NC1(C#N)CC1

>  <Ki (nM)>
251

$$$$
>  <Molecule>
N#CC1(NC(=O)[C@H](Cc2ccccc2)NC(=O)c2cccc(OC(=O)c3ccccc3)c2)CC1

>  <Ki (nM)>
501

$$$$
>  <Molecule>
C[C@@H](O)[C@@H](C#N)NC(=O)[C@H](Cc1cccc(Cl)c1)NC(=O)c1cc(C(C)(C)C)nn1C

>  <Ki (nM)>
6.31

$$$$
>  <Molecule>
C[C@@H](OCc1ccccc1)[C@H](NC(=O)c1cc(C(C)(C)C)nn1C)C(=O)NC1(C#N)CC1

>  <Ki (nM)>
1260

$$$$
>  <Molecule>
C[C@@H](OCc1ccccc1)[C@@H](C#N)NC(=O)[C@H](Cc1cccc(Cl)c1)NC(=O)c1cc(C(C)(C)C)nn1C

>  <Ki (nM)>
7.94

$$$$
>  <Molecule>
CC(C)C[C@H](NC(=O)c1cc(C(C)(C)C)nn1C)C(=O)NC1(C#N)CC1

>  <Ki (nM)>
25.1

$$$$
>  <Molecule>
CC(C)CC(C#N)NC(=O)[C@H](Cc1ccccc1)NC(=O)c1cc(C(C)(C)C)nn1C (stereo in doubt)

>  <Ki (nM)>
100

$$$$
>  <Molecule>
CC(C)C[C@H](NC(=O)c1cnc2[nH]ccc2c1)C(=O)NC1(C#N)CC1

>  <Ki (nM)>
79.4

$$$$

====

# melting point per entry
Metric Name: melting point

>  <Compound>
CC(C)C[C@H](NC(=O)c1cc(C(C)(C)C)nn1C)C(=O)N[C@H](C#N)[C@@H](C)OCc1ccccc1 [Compound 58]

>  <Metric Name>
melting point

>  <Result>
96 to 97 °C

$$$$
>  <Compound>
C[C@@H](O)[C@@H](C#N)NC(=O)[C@H](Cc1ccccc1)NC(=O)c1cc(C(C)(C)C)nn1C [Compound 65]

>  <Metric Name>
melting point

>  <Result>
159 to 160 °C

$$$$
>  <Compound>
C[C@@H](OCc1ccccc1)[C@H](NC(=O)c1cc(C(C)(C)C)nn1C)C(=O)NC1(C#N)CC1 [Compound 12]

>  <Metric Name>
melting point

>  <Result>
100 to 101 °C

$$$$
>  <Compound>
Cn1nc(C(C)(C)C)cc1C(=O)N[C@@H](Cc1ccccc1)C(=O)N[C@H](C#N)Cc1cccc(Cl)c1 [Compound 54]

>  <Metric Name>
melting point

>  <Result>
132 to 133 °C

$$$$

====

tested on: T. cruzi Tulahuen LacZ strain, intracellular amastigote forms; assay: In vitro trypanocidal activity on intracellular amastigote forms (Tulahuen strain); type: cell-based, Trypanosoma cruzi; conditions: Trypanosoma cruzi, TULAHUEN, amastigote forms of T. cruzi (Tuhaluen strain); Figs 12-14, unit inferred

>  <Compound>
C[C@@H](OCc1ccccc1)[C@@H](C#N)NC(=O)[C@H](Cc1ccccc1)NC(=O)c1cc(C(C)(C)C)nn1C [Compound 56]

>  <Assayed Target>
T. cruzi Tulahuen LacZ strain, intracellular amastigote forms

>  <EC50>
> 100 µM

$$$$
>  <Compound>
Cn1nc(C(C)(C)C)cc1C(=O)N[C@@H](Cc1cccc(Cl)c1)C(=O)NC1(C#N)CC1 [Compound 8]

>  <Assayed Target>
T. cruzi Tulahuen LacZ strain, intracellular amastigote forms

>  <EC50>
> 100 µM

$$$$

====

molecular target: Human recombinant cathepsin K (Homo sapiens, UniProt P43235); assay: Cathepsin K assay; type: biochemical; conditions: 10 μM; replicates = 2; n.i. = no inhibition observed at 10 μM; read-out: remaining activity (%) at 10 μM, CatK
Sequence (P43235 115-329): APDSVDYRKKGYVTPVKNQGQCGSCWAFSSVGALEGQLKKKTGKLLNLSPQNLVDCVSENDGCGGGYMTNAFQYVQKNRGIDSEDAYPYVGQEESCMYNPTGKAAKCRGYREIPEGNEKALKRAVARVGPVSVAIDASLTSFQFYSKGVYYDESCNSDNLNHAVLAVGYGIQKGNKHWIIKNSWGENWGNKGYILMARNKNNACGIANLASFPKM
Each entry below carries its recorded remaining activity at 10 µM.

>  <Smiles Text>
C[C@H](O)[C@H](C#N)NC(=O)[C@H](Cc1ccccc1)NC(=O)c1cc(C(C)(C)C)nn1C

>  <remaining activity at 10 µM (%)>
81

$$$$
>  <Smiles Text>
C[C@H](OCc1ccccc1)[C@H](C#N)NC(=O)[C@H](Cc1ccccc1)NC(=O)c1cc(C(C)(C)C)nn1C

>  <remaining activity at 10 µM (%)>
97

$$$$
>  <Smiles Text>
C[C@@H](OCc1ccccc1)[C@H](NC(=O)c1cc(C(C)(C)C)nn1C)C(=O)NC1(C#N)CC1

>  <remaining activity at 10 µM (%)>
96

$$$$
>  <Smiles Text>
C[C@@H](O)[C@@H](C#N)NC(=O)[C@H](Cc1ccccc1)NC(=O)c1cc(C(C)(C)C)nn1C

>  <remaining activity at 10 µM (%)>
86

$$$$
>  <Smiles Text>
N#CC1(NC(=O)[C@H](Cc2ccccc2)NC(=O)c2ccnc3cc(Cl)ccc23)CC1

>  <remaining activity at 10 µM (%)>
81

$$$$

====

target: cathepsin B (CatB) (Homo sapiens, UniProt P07858); experiment: Cathepsin B enzyme inhibition; assay type: biochemical; conditions: SD lower than 15%; read-out: pKi CatB (converted)
Below, each entry is listed with its recorded Ki.

>  <Compound>
N#CC1(NC(=O)[C@H](Cc2cccc(Cl)c2)NC(=O)c2ccccc2)CC1 [Compound 7]

>  <Unit Abbrev>
µM

>  <Ki>
3.16

$$$$
>  <Compound>
Cn1nc(C(C)(C)C)cc1C(=O)N[C@@H](Cc1ccccc1)C(=O)N[C@H](C#N)Cc1ccncc1 [Compound 55]

>  <Unit Abbrev>
µM

>  <Ki>
15.8

$$$$
>  <Compound>
Cn1nc(C(C)(C)C)cc1C(=O)N[C@@H](Cc1cccc(Cl)c1)C(=O)NC1(C#N)CC1 [Compound 8]

>  <Unit Abbrev>
µM

>  <Ki>
3.98

$$$$
>  <Compound>
Cn1nc(C(C)(C)C)cc1C(=O)N[C@@H](Cc1ccccc1)C(=O)NC1(C#N)CC1 [Compound 9]

>  <Unit Abbrev>
µM

>  <Ki>
15.8

$$$$
>  <Compound>
N#CC1(NC(=O)[C@H](Cc2ccccc2)NC(=O)c2ccnc3cc(Cl)ccc23)CC1 [Compound 13]

>  <Unit Abbrev>
µM

>  <Ki>
12.6

$$$$
>  <Compound>
C[C@@H](OCc1ccccc1)[C@@H](C#N)NC(=O)[C@H](Cc1cccc(Cl)c1)NC(=O)c1cc(C(C)(C)C)nn1C [Compound 60]

>  <Unit Abbrev>
µM

>  <Ki>
0.501

$$$$
>  <Compound>
CC(C)C[C@H](NC(=O)c1cc(C(C)(C)C)nn1C)C(=O)N[C@H](C#N)[C@@H](C)OCc1ccccc1 [Compound 58]

>  <Unit Abbrev>
µM

>  <Ki>
7.94

$$$$
>  <Compound>
CC(C)C[C@H](NC(=O)c1cnc2[nH]ccc2c1)C(=O)NC1(C#N)CC1 [Compound 18]

>  <Unit Abbrev>
µM

>  <Ki>
31.6

$$$$
>  <Compound>
N#CC1(NC(=O)[C@H](Cc2ccccc2)NC(=O)c2cccc(OC(=O)c3ccccc3)c2)CC1 [Compound 16]

>  <Unit Abbrev>
µM

>  <Ki>
6.31

$$$$
>  <Compound>
CC(C)C[C@H](NC(=O)c1cc(C(C)(C)C)nn1C)C(=O)NC1(C#N)CC1 [Compound 11]

>  <Unit Abbrev>
µM

>  <Ki>
31.6

$$$$
>  <Compound>
CC(C)C[C@@H](C#N)NC(=O)[C@H](Cc1ccccc1)NC(=O)c1cc(C(C)(C)C)nn1C [Compound 52]

>  <Unit Abbrev>
µM

>  <Ki>
7.94

$$$$
>  <Compound>
C[C@@H](OCc1ccccc1)[C@@H](C#N)NC(=O)[C@H](Cc1ccccc1)NC(=O)c1cc(C(C)(C)C)nn1C [Compound 56]

>  <Unit Abbrev>
µM

>  <Ki>
6.31

$$$$
>  <Compound>
Cn1nc(C(C)(C)C)cc1C(=O)N[C@@H](Cc1ccccc1)C(=O)N[C@H](C#N)Cc1ccccc1 [Compound 50]

>  <Unit Abbrev>
µM

>  <Ki>
31.6

$$$$
>  <Compound>
Cn1nc(C(C)(C)C)cc1C(=O)N[C@@H](Cc1ccccc1)C(=O)N[C@H](C#N)Cc1cccc(Cl)c1 [Compound 54]

>  <Unit Abbrev>
µM

>  <Ki>
12.6

$$$$
>  <Compound>
C[C@@H](O)[C@@H](C#N)NC(=O)[C@H](Cc1cccc(Cl)c1)NC(=O)c1cc(C(C)(C)C)nn1C [Compound 69]

>  <Unit Abbrev>
µM

>  <Ki>
6.31

$$$$
